# System: SGC-7901 early differentiation gastric cancer cell
# Assay Procedure: MTT anti-proliferative assay, SGC-7901
# Assay type: cell-based, human
# Measurement Parameters: MTT, 48 h
pIC50: −log10 of the molar value.
For each entry below, report its pIC50 value.

Answered cases to consult:
>>> assay_result("CN(C)c1ccc(/C=C(\\C#N)c2cccc(OC(F)(F)F)c2)cc1")
5.15
>>> assay_result("CCCCCCOc1ccc(/C=C(\\C#N)c2ccc(OC(F)(F)F)cc2)cc1")
"< 4.00"
>>> assay_result("N#C/C(=C\\c1ccccc1)c1ccc(OC(F)(F)F)cc1")
"< 4.00"
>>> assay_result("CC(C)c1ccc(/C=C(\\C#N)c2ccc(OC(F)(F)F)cc2)cc1")
4.05
>>> assay_result("N#C/C(=C\\c1ccccc1Br)c1ccc(C(F)(F)F)cc1")
"< 4.00"

# batch: return pIC50 for each of the 4 compounds below
1. CCCOc1ccc(/C=C(\C#N)c2ccc(OC(F)(F)F)cc2)cc1
2. N#C/C(=C\c1cccc2ccccc12)c1ccc(OC(F)(F)F)cc1
3. CCc1ccc(/C=C(\C#N)c2ccc(C(F)(F)F)cc2)cc1
4. N#C/C(=C\c1ccc(/C=C(\C#N)c2ccc(C(F)(F)F)cc2)cc1)c1ccc(C(F)(F)F)cc1

Output line:
1: < 4.00; 2: < 4.00; 3: < 4.00; 4: < 4.00

---

For each entry below, report its pIC50 value.
# Test system: MCF-7 breast cancer cell
# Assay Procedure: MTT anti-proliferative assay, MCF-7
# Assay type: cell-based, human
# Measurement Parameters: MTT, 48 h
pIC50: −log10 of the molar value.

Answered cases to consult:
>>> assay_result("Cc1ccc(/C=C(\\C#N)c2ccc(OC(F)(F)F)cc2)cc1")
"< 4.00"
>>> assay_result("CCN(CC)c1ccc(/C=C(\\C#N)c2cc(OC)c(OC)c(OC)c2)cc1")
6.35
>>> assay_result("N#C/C(=C\\c1ccccc1)c1ccc(C(F)(F)F)cc1")
"< 4.00"
>>> assay_result("Cc1ccc(/C(C#N)=C/c2ccc(N(C)C)cc2)cc1")
"< 4.00"

Now for a further compound.
Input line: Given the compound COc1ccc(/C=C(\C#N)c2cccc(OC(F)(F)F)c2)cc1 , write its reported pIC50.
Output line: < 4.00

---

# Tested on: Raji B lymphoblastoid cell
# Assay Procedure: MTT anti-proliferative assay, Raji
# Type: cell-based, human
Measured Quantity: SI (selectivity index), IC50 (L-02)/IC50 (Raji)

Answered cases to consult:
>>> assay_result("CCc1ccc(/C=C(\\C#N)c2ccc(OC(F)(F)F)cc2)cc1 [Compound 1a2f]")
"> 2.3"
>>> assay_result("N#C/C(=C\\c1ccc(Br)cc1)c1ccc(OC(F)(F)F)cc1 [Compound 1a2d]")
"> 1.5"
>>> assay_result("CCN(CC)c1ccc(/C=C(\\C#N)c2ccc(C)cc2)cc1 [Compound 1d2b]")
"> 8.4"
>>> assay_result("N#C/C(=C\\c1ccc(Br)cc1)c1cccc(OC(F)(F)F)c1 [Compound 1b2d]")
"> 3.0"
>>> assay_result("N#C/C(=C\\c1ccc(/C=C/C(=O)c2ccc(F)cc2)cc1)c1ccc(OC(F)(F)F)cc1 [Compound 8c]")
"> 99.0"

# batch: return SI (selectivity index), IC50 (L-02)/IC50 (Raji) for each of the 4 molecules below
1. CN(C)c1ccc(/C=C(\C#N)c2cccc(OC(F)(F)F)c2)cc1 [Compound 1b2h]
2. Cc1ccc(/C(C#N)=C/c2ccc(N(C)C)cc2)cc1 [Compound 1d2a]
3. N#C/C(=C\c1ccc(/C=C(\C#N)c2ccc(C(F)(F)F)cc2)cc1)c1ccc(C(F)(F)F)cc1 [Compound 1f2w]
4. COc1ccc(/C(C#N)=C/c2ccc(N(C)C)cc2)cc1 [Compound 1e2b]

Output line:
1: > 2.5; 2: > 12.5; 3: > 2083; 4: > 7.8

---

For each entry below, report its SI (selectivity index), IC50 (MCF-10A)/IC50 (MCF-7) value.
# Test system: MCF-7 breast cancer cell
# Assay Procedure: MTT anti-proliferative assay, MCF-7
# Assay type: cell-based, human
Marks after values point to notes of the source that are not given here.

>>> assay_result("CCN(CC)c1ccc(/C=C(\\C#N)c2ccc(C)cc2)cc1")
"> 1.9"
>>> assay_result("COc1ccc(/C=C\\c2cc(OC)c(OC)c(OC)c2)cc1O [CA-4, combretastatin A-4, reference compound]")
"> 14.6^d"
>>> assay_result("N#C/C(=C\\c1ccc(Cl)cc1)c1ccc(OC(F)(F)F)cc1")
"> 1.8"

Input line: Given the compound CCc1ccc(/C=C(\C#N)c2ccc(OC(F)(F)F)cc2)cc1 , write its reported SI (selectivity index), IC50 (MCF-10A)/IC50 (MCF-7).
Output line: > 1.6

---

For each entry below, report its IC50 value.
# System: HCT116 colectal cancer cell
# Assay Procedure: MTT anti-proliferative assay, HCT116
# Type: cell-based, human
# Measurement Parameters: MTT, 48 h; read-out: IC50 HCT-116
One number for each entry, in µM.

>>> assay_result("N#C/C(=C\\c1ccccn1)c1cccc(OC(F)(F)F)c1")
19.3

Now for a further compound.
Input line: Write down measured IC50 (HCT116 colectal cancer cell) for this compound. N#C/C(=C\c1ccccn1)c1ccc(C(F)(F)F)cc1
Output line: 87.6

---

Measured Quantity: melting point

>>> assay_result("COc1cc(-n2cc(/C=C(\\C#N)c3ccc(OC(F)(F)F)cc3)nn2)cc(OC)c1OC")
"170 to 172 °C"
>>> assay_result("COc1ccc(C(=O)/C=C/c2ccc(/C=C(\\C#N)c3ccc(OC(F)(F)F)cc3)cc2)cc1")
"148 to 150 °C"
>>> assay_result("N#C/C(=C\\c1ccc(/C=C/C(=O)c2ccc(Br)cc2)cc1)c1ccc(OC(F)(F)F)cc1")
"145 to 147 °C"
>>> assay_result("N#C/C(=C\\c1ccc(/C=C/C(=O)c2ccccc2)cc1)c1ccc(OC(F)(F)F)cc1")
"155 to 157 °C"

Input line: Given the compound N#C/C(=C\c1cn(Cc2ccccc2)c2ccccc12)c1ccc(OC(F)(F)F)cc1 , write its reported melting point.
Output line: 118 to 120 °C

---

For each entry below, report its pIC50 value.
# System: diffuse large B-cell lymphoma SU-DHL-10 cell
# Assay Procedure: MTT anti-proliferative assay, SU-DHL-10
# Format: cell-based, human
# Measurement Parameters: Homo sapiens, SU-DHL10; MTT, 48 h; read-out: IC50 SU-DHL-10
pIC50: −log10 of the molar value.

>>> assay_result("N#C/C(=C\\c1cn(Cc2ccccc2)c2ccccc12)c1ccc(OC(F)(F)F)cc1")
"< 4.00"
>>> assay_result("COc1ccc(C(=O)/C=C/c2ccc(/C=C(\\C#N)c3ccc(OC(F)(F)F)cc3)cc2)cc1")
5.89
>>> assay_result("COc1ccc(/C=C\\c2cc(OC)c(OC)c(OC)c2)cc1O [CA-4, combretastatin A-4, reference compound]")
5.96

# batch: return pIC50 for each of the 5 compounds below
1. COc1cccc(-n2cc(/C=C(\C#N)c3ccc(OC(F)(F)F)cc3)nn2)c1
2. Oc1ccc(/C=C/c2cc(O)cc(O)c2)cc1 [Resveratrol, resveratrol, reference compound]
3. N#C/C(=C\c1ccc(/C=C/C(=O)c2ccc(Br)cc2)cc1)c1ccc(OC(F)(F)F)cc1
4. N#C/C(=C\c1cn(-c2ccccc2)nn1)c1ccc(OC(F)(F)F)cc1
5. N#C/C(=C\c1ccc(/C=C/C(=O)c2ccccc2)cc1)c1ccc(OC(F)(F)F)cc1

Output line:
1. < 4.00
2. < 4.00
3. 5.15
4. < 4.00
5. < 4.00

Input line: Write down measured pIC50 (diffuse large B-cell lymphoma SU-DHL-10 cell) for this compound. COc1cc(-n2cc(/C=C(\C#N)c3ccc(OC(F)(F)F)cc3)nn2)cc(OC)c1OC
Output line: < 4.00

---

For each entry below, report its SI (selectivity index), IC50 (L-02)/IC50 (SU-DHL-10) value.
# System: diffuse large B-cell lymphoma SU-DHL-10 cell
# Assay Procedure: MTT anti-proliferative assay, SU-DHL-10
# Assay type: cell-based, human

>>> assay_result("N#C/C(=C\\c1ccc(/C=C/C(=O)c2ccc(F)cc2)cc1)c1ccc(OC(F)(F)F)cc1")
"> 96.1"

# batch: return SI (selectivity index), IC50 (L-02)/IC50 (SU-DHL-10) for each of the 5 compounds below
1. N#C/C(=C\c1ccc(/C=C/C(=O)c2ccc(Br)cc2)cc1)c1ccc(OC(F)(F)F)cc1
2. COc1ccc(/C(C#N)=C/c2cc(OC)c(OC)c(OC)c2)cc1
3. CCN(CC)c1ccc(/C=C(\C#N)c2cc(OC)c(OC)c(OC)c2)cc1
4. CC(C)c1ccc(/C=C(\C#N)c2ccc(OC(F)(F)F)cc2)cc1
5. N#C/C(=C\c1ccc(Br)cc1)c1cccc(OC(F)(F)F)c1

Output line:
1. > 14.0
2. > 1.7
3. > 34.0
4. > 3.6
5. > 1.4

Origin of the recorded values: paper PMC11071649
